The reader will find reported Zone of Inhibition values listed item by item below.
test system: Staphlococcus aureus (S.a); assay: Zone of inhibition, polyvinyl chloride film discs on inoculated agar; type: cell-based; conditions: PVC film, 0.5%
A number alone suffices; assume mm.

Looking for the measured Zone of Inhibition of CCCCCCn1sc(Cl)c(Cl)c1=O [Compound 4] , can you help?
9.3

Looking for the measured Zone of Inhibition of CCCCCCCn1sc(Cl)c(Cl)c1=O [Compound 6] , can you help?
4.3

Looking for the measured Zone of Inhibition of O=c1c(Cl)c(Cl)sn1CCc1ccccc1 [Compound 3] , can you help?
10.8

Looking for the measured Zone of Inhibition of CCCCCCCCn1sc(Cl)c(Cl)c1=O [Compound 5] , can you help?
3.3
